# target.desc: ROC1-CUL1 CTD (Homo sapiens (Human))
# assay.details: FRET K48 di-Ub synthesis assay
# Assay type: biochemical
# experimental.setup: Table 9; read-out: IC50 (FRET CUL1 assay)
Below, each of the compounds is paired with its reported pIC50 value.
Scale: negative log10 of molar concentration, which is what pIC50 denotes.

{"compound": "O=c1c(Oc2ccc(Br)cc2)c(C(F)(F)F)oc2c(O)c(O)ccc12", "pIC50": 5.46}
{"compound": "O=c1c(Oc2ccc(Br)cc2)c(C(F)(F)F)oc2c(O)c(O)c(Br)cc12", "pIC50": 5.08}
{"compound": "O=c1c(Oc2ccccc2)c(C(F)(F)F)oc2c(O)c(O)c(Br)cc12 [[drawing 256]]", "pIC50": 5.48}

Please respond with reported pIC50 (system ROC1-CUL1 CTD (Homo sapiens (Human))) for O=c1c(Oc2cccc(Br)c2)c(C(F)(F)F)oc2c(O)c(O)ccc12 .
5.62

Report value only: pIC50, ROC1-CUL1 CTD (Homo sapiens (Human)), O=c1c(Oc2ccccc2)c(C(F)(F)F)oc2c(O)c(O)c(Br)cc12 [drawing 256]
5.51

Give pIC50 for this entry on ROC1-CUL1 CTD (Homo sapiens (Human)): O=c1c(Oc2ccccc2Br)c(C(F)(F)F)oc2c(O)c(O)ccc12
5.57

###

# assay.details: End-of-study PK in MV4-11 xenograft mice
# Type: in vivo
# experimental.setup: BALB/c nude, mouse, plasma, ip; G3, 50 mg/kg Q2D; read-out: AUC over 24 hours in plasma
recorded.metric: AUC

Give recorded AUC. O=c1c(-c2cnn(-c3ccc(Cl)cc3)c2)c(C(F)(F)F)oc2c(O)c(O)ccc12
~3.3 µM·h

###

# target.desc: ROC1-CUL4A (Homo sapiens (Human))
# Sequence (Q13619 39-759, one chain of several): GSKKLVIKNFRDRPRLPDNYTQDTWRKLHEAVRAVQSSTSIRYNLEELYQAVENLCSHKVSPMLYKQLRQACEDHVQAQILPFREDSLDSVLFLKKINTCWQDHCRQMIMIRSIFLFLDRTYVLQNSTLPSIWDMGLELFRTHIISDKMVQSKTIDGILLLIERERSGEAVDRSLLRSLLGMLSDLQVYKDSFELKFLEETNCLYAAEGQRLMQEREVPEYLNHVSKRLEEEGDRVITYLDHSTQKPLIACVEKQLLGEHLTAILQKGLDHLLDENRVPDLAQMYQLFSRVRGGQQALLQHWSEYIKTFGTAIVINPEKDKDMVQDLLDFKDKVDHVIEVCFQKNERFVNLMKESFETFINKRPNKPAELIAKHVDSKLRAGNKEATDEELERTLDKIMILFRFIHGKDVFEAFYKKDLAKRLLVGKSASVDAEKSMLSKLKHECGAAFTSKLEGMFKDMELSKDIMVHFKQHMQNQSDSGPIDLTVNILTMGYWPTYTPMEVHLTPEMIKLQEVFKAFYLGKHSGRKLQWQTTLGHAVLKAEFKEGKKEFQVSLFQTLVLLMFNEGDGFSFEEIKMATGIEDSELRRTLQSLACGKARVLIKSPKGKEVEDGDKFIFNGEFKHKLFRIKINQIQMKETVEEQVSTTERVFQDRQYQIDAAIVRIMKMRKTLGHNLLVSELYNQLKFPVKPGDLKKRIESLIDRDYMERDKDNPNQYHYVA
# assay.details: 32P-Ub chain elongation by ROC1-CUL4A
# Format: biochemical
# Design: concentration or dose not given beside the values
# experimental.setup: relative to KH-4-43
recorded.metric: E3 CRL4 Relative Inhibition

The following compounds have reported results that may help.
{"compound": "CCn1cc(-c2c(C(F)(F)F)oc3c(O)c(O)ccc3c2=O)cn1 [MM-009]", "E3 CRL4 Relative Inhibition": "0%"}
{"compound": "CCCn1cc(-c2c(C(F)(F)F)oc3c(O)c(O)ccc3c2=O)cn1 [MM-008]", "E3 CRL4 Relative Inhibition": "0%"}
{"compound": "CCCCn1cc(-c2c(C(F)(F)F)oc3c(O)c(O)ccc3c2=O)cn1 [MM-007]", "E3 CRL4 Relative Inhibition": "2%"}
{"compound": "O=c1c(-c2cnn(-c3ccccc3)c2)c(C(F)(F)F)oc2c(O)c(O)ccc12 [#33-11]", "E3 CRL4 Relative Inhibition": "37%"}
{"compound": "COc1c(O)ccc2c(=O)c(-c3cnn(-c4ccccc4)c3)c(C(F)(F)F)oc12 [KH-4-119]", "E3 CRL4 Relative Inhibition": "13%"}

Identify measured E3 CRL4 Relative Inhibition corresponding to COc1ccc2c(=O)c(-c3cnn(-c4ccc(F)cc4)c3)c(C(F)(F)F)oc2c1OC [KH-3-141]
0%

###

# target.desc: ROC1-CUL1 CTD (Homo sapiens (Human), UniProt Q13616)
# Sequence (Q13616 411-776): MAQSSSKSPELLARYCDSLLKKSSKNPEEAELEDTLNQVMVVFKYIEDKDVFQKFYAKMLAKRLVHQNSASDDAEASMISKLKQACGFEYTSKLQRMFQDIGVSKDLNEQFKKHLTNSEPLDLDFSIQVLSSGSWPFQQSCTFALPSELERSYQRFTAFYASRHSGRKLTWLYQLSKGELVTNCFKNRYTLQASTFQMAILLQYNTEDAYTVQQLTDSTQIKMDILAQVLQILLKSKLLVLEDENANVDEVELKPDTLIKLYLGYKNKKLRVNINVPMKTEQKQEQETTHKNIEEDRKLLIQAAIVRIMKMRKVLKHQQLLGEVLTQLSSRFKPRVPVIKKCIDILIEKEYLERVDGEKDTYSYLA
# Sequence (P62877 whole entry partner): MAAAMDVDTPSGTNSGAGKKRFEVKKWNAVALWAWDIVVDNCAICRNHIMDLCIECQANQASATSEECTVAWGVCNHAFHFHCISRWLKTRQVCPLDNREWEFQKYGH
# assay.details: FRET K48 di-Ub synthesis assay
# Format: biochemical
# experimental.setup: Table 5; read-out: E3 inhibition IC50
recorded.metric: pIC50
Expect pIC50 as a plain number equal to -log10 of the molar concentration.

{"line.notation": "Cc1oc2c(O)c(O)ccc2c(=O)c1Oc1ccccc1", "target.desc": "ROC1-CUL1 CTD (Homo sapiens (Human), UniProt Q13616)", "pIC50": 5.05}

Could you now consider this next compound?
Please give the documented pIC50 of O=c1c(Oc2ccccc2)c(C(F)(F)F)oc2c3c(ccc12)OCO3
4.10

###

// values below are reported pEC50
# target.desc: UniProt:Q13619
# assay.details: E3 (CUL4) inhibition (Table 1)
pEC50: −log10 of the molar value.

Supply reported pEC50 belonging to this molecule: O=c1c(-c2cnn(Cc3ccccc3Cl)c2)c(C(F)(F)F)oc2c(O)c(O)ccc12 [MSSM-RJD-MM-015]
< 5.00

Identify measured pEC50 associated with COc1ccc2c(=O)c(-c3cnn(Cc4ccc(Cl)cc4)c3)c(C(F)(F)F)oc2c1OC [MSSM-RJD-MM-001]
< 5.00

Look up pEC50 of O=c1c(-c2cnn(-c3ccc(Cl)cc3Cl)c2)c(C(F)(F)F)oc2c(O)c(O)ccc12 [KH-4-98] and report it.
~5.00

Please supply the value of reported pEC50 for the item CCCCn1cc(-c2c(C(F)(F)F)oc3c(OC)c(OC)ccc3c2=O)cn1 [MSSM-RJD-MM-002]
< 5.00

Note pEC50 for the molecule shown: N#Cc1ccc(-n2cc(-c3c(C(F)(F)F)oc4c(O)c(O)ccc4c3=O)cn2)cc1 [KH-3-152]
< 4.85

Check the records and state pEC50 for CCCn1cc(-c2c(C(F)(F)F)oc3c(OC)c(OC)ccc3c2=O)cn1 [MSSM-RJD-MM-004]
< 5.00

###

# target.desc: E3 (CUL1) (Homo sapiens (Human), UniProt Q13616)
# Sequence (Q13616 whole entry, one chain of several): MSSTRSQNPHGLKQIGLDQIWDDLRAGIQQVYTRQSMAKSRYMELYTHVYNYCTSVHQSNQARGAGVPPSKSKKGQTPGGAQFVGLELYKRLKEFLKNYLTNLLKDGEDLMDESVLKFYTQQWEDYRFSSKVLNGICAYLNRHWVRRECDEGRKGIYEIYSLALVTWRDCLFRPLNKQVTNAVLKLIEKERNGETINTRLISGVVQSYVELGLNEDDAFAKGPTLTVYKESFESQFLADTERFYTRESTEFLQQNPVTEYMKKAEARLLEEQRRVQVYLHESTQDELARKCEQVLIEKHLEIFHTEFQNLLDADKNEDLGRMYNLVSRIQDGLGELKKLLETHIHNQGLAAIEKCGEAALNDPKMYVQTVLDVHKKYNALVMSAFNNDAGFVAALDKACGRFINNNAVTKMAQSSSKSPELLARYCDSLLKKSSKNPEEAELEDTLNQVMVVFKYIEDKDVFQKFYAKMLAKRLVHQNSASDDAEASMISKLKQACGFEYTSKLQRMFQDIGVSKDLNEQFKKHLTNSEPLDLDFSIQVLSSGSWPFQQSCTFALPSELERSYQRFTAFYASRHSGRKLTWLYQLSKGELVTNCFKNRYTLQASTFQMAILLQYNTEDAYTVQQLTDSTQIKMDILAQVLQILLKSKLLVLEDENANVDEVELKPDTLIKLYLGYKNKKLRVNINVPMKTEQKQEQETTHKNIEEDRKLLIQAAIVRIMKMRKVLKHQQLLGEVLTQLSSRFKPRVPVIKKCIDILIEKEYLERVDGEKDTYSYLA
# assay.details: E3 (CUL1) inhibition (Table 1)
# Assay type: biochemical
recorded.metric: EC50 (µM)
State the answer as a number, implicitly in µM.

Report the value of EC50 obtained on E3 (CUL1) (Homo sapiens (Human), UniProt Q13616) for O=c1c(-c2ccnn2Cc2ccccc2)c(C(F)(F)F)oc2c(O)c(O)ccc12 [KH-3-160A] .
3.4

Specify the recorded EC50 for O=c1ccoc2c(O)c(O)ccc12 [KH-3-49] , system: E3 (CUL1) (Homo sapiens (Human), UniProt Q13616).
11

###

# target.desc: E3 (CUL1) (Homo sapiens (Human))
# assay.details: E3 (CUL1) inhibition (Table 1)
pEC50 values by entry
Would you please state pEC50, meaning minus log10 of the concentration in mol/L, as a bare number?

The cases that follow already have their pEC50 on record.
{"line.notation": "O=c1c(-c2cnn(Cc3cccc(Cl)c3)c2)c(C(F)(F)F)oc2c(O)c(O)ccc12", "recorded.metric": "pEC50", "test.result": 5.08}
{"line.notation": "O=c1c(-c2cnn(Cc3cc(F)ccc3C(F)(F)F)c2)c(C(F)(F)F)oc2c(O)c(O)ccc12", "recorded.metric": "pEC50", "test.result": 5.14}

Now consider the entry below.
Entry O=c1c(-c2cnn(Cc3cc(C(F)(F)F)ccc3F)c2)c(C(F)(F)F)oc2c(O)c(O)ccc12 needs its pEC50 filled in; supply it.
5.19

###

# target.desc: E3 (CUL1) (Homo sapiens (Human))
# assay.details: E3 (CUL1) inhibition (Table 1)
Form field: EC50 (one value per entry).
Dear colleague, please return just the value in µM, with no unit written.

{"line.notation": "O=c1c(-c2cnn(-c3ccc(C(F)(F)F)cc3)c2)c(C(F)(F)F)oc2c(O)c(O)ccc12", "target.desc": "E3 (CUL1) (Homo sapiens (Human))", "test.result": 9.3}

Tell me EC50 of O=c1c(-c2cnn(Cc3cccc(F)c3)c2)c(C(F)(F)F)oc2c(O)c(O)ccc12 when tested on E3 (CUL1) (Homo sapiens (Human)).
7.9

Please indicate recorded EC50 of O=c1c(-c2cnn(-c3ccc(Cl)cc3)c2)c(C(F)(F)F)oc2c(O)c(O)ccc12 measured with E3 (CUL1) (Homo sapiens (Human)).
7

# return EC50 of O=c1c(-c2cnn(Cc3ccc(C(F)(F)F)cc3)c2)c(C(F)(F)F)oc2c(O)c(O)ccc12 (system: E3 (CUL1) (Homo sapiens (Human)))
5.4

###

# target.desc: E3 (CUL4) (Homo sapiens (Human), UniProt Q13619)
# Sequence (Q13619 whole entry, one chain of several): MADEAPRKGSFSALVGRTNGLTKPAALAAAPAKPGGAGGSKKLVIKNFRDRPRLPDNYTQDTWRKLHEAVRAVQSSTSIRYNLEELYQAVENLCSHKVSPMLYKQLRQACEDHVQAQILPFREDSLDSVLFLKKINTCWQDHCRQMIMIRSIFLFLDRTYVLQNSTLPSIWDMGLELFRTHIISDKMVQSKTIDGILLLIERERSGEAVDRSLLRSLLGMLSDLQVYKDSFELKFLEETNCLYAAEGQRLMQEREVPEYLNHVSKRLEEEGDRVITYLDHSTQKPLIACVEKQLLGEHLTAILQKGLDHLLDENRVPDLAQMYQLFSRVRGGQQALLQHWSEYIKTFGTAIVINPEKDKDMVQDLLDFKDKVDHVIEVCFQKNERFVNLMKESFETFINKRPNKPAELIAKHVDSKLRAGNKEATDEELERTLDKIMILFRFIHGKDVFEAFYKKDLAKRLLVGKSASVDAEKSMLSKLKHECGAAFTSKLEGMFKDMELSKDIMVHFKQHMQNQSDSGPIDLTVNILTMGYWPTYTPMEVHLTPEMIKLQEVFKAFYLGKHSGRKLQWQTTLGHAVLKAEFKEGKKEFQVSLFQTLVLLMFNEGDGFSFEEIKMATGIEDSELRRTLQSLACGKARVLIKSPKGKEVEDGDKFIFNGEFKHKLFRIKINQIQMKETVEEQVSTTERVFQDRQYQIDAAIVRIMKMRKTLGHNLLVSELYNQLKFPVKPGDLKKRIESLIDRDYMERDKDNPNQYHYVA
# assay.details: E3 (CUL4) inhibition (Table 1)
# Type: biochemical
# EC50 values compiled below

Some solved entries appear below for comparison.
{"molecule": "O=c1c(-c2cnn(-c3cc(Cl)cc(Cl)c3)c2)c(C(F)(F)F)oc2c(O)c(O)ccc12", "target.desc": "E3 (CUL4) (Homo sapiens (Human), UniProt Q13619)", "recorded.metric": "EC50", "test.result": "~10 µM"}
{"molecule": "COc1ccc2c(=O)c(-c3cnn(Cc4ccccc4Cl)c3)c(C(F)(F)F)oc2c1OC", "target.desc": "E3 (CUL4) (Homo sapiens (Human), UniProt Q13619)", "recorded.metric": "EC50", "test.result": "> 10 µM"}
{"molecule": "O=c1ccoc2c(O)c(O)ccc12", "target.desc": "E3 (CUL4) (Homo sapiens (Human), UniProt Q13619)", "recorded.metric": "EC50", "test.result": "> 75 µM"}
{"molecule": "COc1cccc(Cn2cc(-c3c(C(F)(F)F)oc4c(OC)c(OC)ccc4c3=O)cn2)c1", "target.desc": "E3 (CUL4) (Homo sapiens (Human), UniProt Q13619)", "recorded.metric": "EC50", "test.result": "> 10 µM"}
{"molecule": "COc1ccc2c(=O)c(-c3cnn(Cc4cc(F)ccc4C(F)(F)F)c3)c(C(F)(F)F)oc2c1OC", "target.desc": "E3 (CUL4) (Homo sapiens (Human), UniProt Q13619)", "recorded.metric": "EC50", "test.result": "> 10 µM"}
{"molecule": "O=c1c(-c2cnn(Cc3ccccc3F)c2)c(C(F)(F)F)oc2c(O)c(O)ccc12", "target.desc": "E3 (CUL4) (Homo sapiens (Human), UniProt Q13619)", "recorded.metric": "EC50", "test.result": "> 10 µM"}

Please indicate EC50 recorded for COc1ccc2c(=O)c(-c3cnn(Cc4ccc(C(F)(F)F)cc4)c3)c(C(F)(F)F)oc2c1OC
> 10 µM

Input O=c1c(-c2ccnn2Cc2ccccc2)c(C(F)(F)F)oc2c(O)c(O)ccc12 [KH-3-160A] , output reported EC50.
~20 µM
